Attribution: ChEMBL document CHEMBL4390702

# Test system: K562
# assayComment: Antiproliferative activity against human K562 cells measured after 48 hrs by MTT assay
# Format: functional, cell-based
# conditionNotes: K562, 48 h
pIC50: −log10 of the molar value.
Parameter: pIC50. Scope: all listed entries.
recordedEndpoint: pIC50

recordsmiles=Nc1cc(F)ccc1NC(=O)c1ccc(CNC(=O)/C=C/c2cccnc2)cc1 systemname=K562 measvalue=6.06
recordsmiles=CNC(=O)c1cc(Oc2ccc(NC(=O)c3ccc4ccccc4c3)cc2)ccc1N systemname=K562 measvalue=4.99
recordsmiles=CNC(=O)c1cc(Oc2ccc(NC(=O)c3ccc(F)cc3)cc2)ccc1N systemname=K562 measvalue=5.19
recordsmiles=CNC(=O)c1cc(Oc2ccc(NC(=O)c3ccc(Cl)c(C(F)(F)F)c3)cc2)ccc1N systemname=K562 measvalue=5.56
recordsmiles=CNC(=O)c1cc(Oc2ccc(NC(=O)Nc3ccc(Cl)c(C(F)(F)F)c3)cc2)ccn1 systemname=K562 measvalue=4.76
recordsmiles=CNC(=O)c1cc(Oc2ccc(NC(=O)c3ccc(OC)cc3)cc2)ccc1N systemname=K562 measvalue=5.28
recordsmiles=CNC(=O)c1cc(Oc2ccc(NC(=O)c3ccc(Cl)cc3)cc2)ccc1N systemname=K562 measvalue=5.15
